Target: SpSla1-D3
Experiment: SPOT peptide array binding signal intensity (averaged, normalized) (arbitrary units (background-subtracted, floor 0; scale differs between SH3 domains)); higher = stronger binding of the SH3 domain to the peptide
PARAMETER MEASURED: SPOT peptide array binding signal intensity
Write the value as a bare number.

- BINDER: "KWVRRPKLMTPLTFS"
  READOUT NUMBER: 62

Input line: Fill blank: measured SPOT peptide array binding signal intensity of the binder RPVPPPPPMRTTTEG is ____.
Output line: 33.5

Input line: Fill blank: measured SPOT peptide array binding signal intensity of the binder YRRKSIPFAPHQITA is ____.
Output line: 11

Input line: Fill blank: measured SPOT peptide array binding signal intensity of the binder ILARAILTIPRVLDK is ____.
Output line: 10
